Molecular target: PTHR1 (Rattus norvegicus, UniProt P25961)
Sequence (P25961 27-591): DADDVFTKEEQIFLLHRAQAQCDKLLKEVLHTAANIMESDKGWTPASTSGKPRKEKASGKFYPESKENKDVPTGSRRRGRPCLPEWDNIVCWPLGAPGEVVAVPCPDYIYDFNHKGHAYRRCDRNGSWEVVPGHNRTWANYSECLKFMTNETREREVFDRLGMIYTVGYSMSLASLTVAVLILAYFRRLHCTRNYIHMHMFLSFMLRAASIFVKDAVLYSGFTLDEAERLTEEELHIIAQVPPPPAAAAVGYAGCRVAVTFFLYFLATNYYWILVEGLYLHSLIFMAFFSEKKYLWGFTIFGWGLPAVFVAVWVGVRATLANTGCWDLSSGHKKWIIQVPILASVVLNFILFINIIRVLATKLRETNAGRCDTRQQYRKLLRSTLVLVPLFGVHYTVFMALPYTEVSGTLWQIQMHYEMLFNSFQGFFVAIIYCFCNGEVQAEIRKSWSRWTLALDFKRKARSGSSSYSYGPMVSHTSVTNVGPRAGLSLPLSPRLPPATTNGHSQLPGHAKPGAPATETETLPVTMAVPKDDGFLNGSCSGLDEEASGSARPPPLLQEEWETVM
# cutoff 1 applies to Fold Shift of EC50; >= gives met, < gives not met

>>> assigned_label("RETNAGRSDTRQQYRKLLKS [Compound 51]")
"met"
>>> assigned_label("LYLHSLIFMAFFSEKKYLWG [Compound 38]")
"met"
>>> assigned_label("SGRVLATKLRET [Compound 72]")
"not met"
>>> assigned_label("TNAGRSDTRQQYRKLLK [Compound 84]")
"met"
>>> assigned_label("DTRQQYRKLLKS [Compound 67]")
"met"
>>> assigned_label("RETNAGRSDTRQQYRK [Compound 60]")
"met"
>>> assigned_label("RETNAGRSDTRQQYRF [Compound 61]")
"not met"
>>> assigned_label("RETNAGRSDTRQQYRKLLFS [Compound 58]")
"met"
>>> assigned_label("NGEVQAEIKKSWSRWT [Compound 101]")
"met"
>>> assigned_label("SGRVLATKLRETNA [Compound 73]")
"not met"
>>> assigned_label("TNAGRSDTRQQYRKLL [Compound 68]")
"met"
>>> assigned_label("KKSWSRWTLALDFKRKAR [Compound 97]")
"met"
